test system: OVCAR-4 ovarian; test: NCI-60 one-dose screen, 48 h (100 = growth as untreated, 0 = no growth, -100 = all killed); conditions: 10 µM unless noted
Compounds without any hit were thinned out: in the full panel of roughly 83,000, 20% have a hit. The source made the active and inactive calls. How the source made its calls: active means growth percent below 10; inactive means the rest.
Parameter: growth. Scope: all listed entries.
Reported metric: growth

{"Smiles string": "Cn1cc(-c2nn3cc(-c4cccnc4)nc3s2)c2cc(F)ccc21", "Reported metric": "growth", "Meas value": "104% (inactive)"}
{"Smiles string": "COc1ccc(-c2nnc(SCc3ccc(O)c4ncccc34)n2-c2ccccc2)cc1", "Reported metric": "growth", "Meas value": "13.6% (inactive)"}
{"Smiles string": "Oc1ccc(CSc2nnc(-c3cnccn3)n2-c2ccccc2)c2cccnc12", "Reported metric": "growth", "Meas value": "16.5% (inactive)"}

###

test system: NCI-H322M lung; assay: NCI-60 one-dose screen, 48 h (100 = growth as untreated, 0 = no growth, -100 = all killed); settings: 10 µM unless noted
Compounds without any hit were thinned out: in the full panel of roughly 83,000, 20% have a hit.
Parameter: growth. Scope: all listed entries.
Reported metric: growth (%)

{"Compound": "CC(C)=CCc1c2c(c(O)c3c1O[C@]14C(=C[C@@H]5C[C@H]1C(C)(C)O[C@@]4(C/C=C(/C)C(=O)O)C5=O)C3=O)CC(O)C(C)(C)O2 (stereo not given in full)", "Meas value": 11.6}
{"Compound": "CCN1C(=O)N(CC)C2SC(N/N=C/c3ccccc3)=NC21 (stereo not given)", "Meas value": 51.7}
{"Compound": "CNC(=O)c1cc(Oc2ccc3nc(NC(=O)c4cccc(C(F)(F)F)c4)sc3c2)ccn1", "Meas value": 103}
{"Compound": "C=CCn1c(SCC(=O)Nc2cccc(C(=O)/C=C/c3cccc([N+](=O)[O-])c3)c2)nc2ccccc2c1=O", "Meas value": 95.4}
{"Compound": "CCn1c2ccc(/C=N/NS(=O)(=O)CCN(C)C)cc2c2cc(/C=N/NS(=O)(=O)CCN(C)C)ccc21", "Meas value": 85.7}
{"Compound": "O=C1NC(=O)/C(=C/c2ccc(OCc3cc4ccccc4nc3Cl)cc2)S1", "Meas value": 103}
{"Compound": "O=C(COc1ccc(C2SCC(=O)N2c2ccc(F)cc2)cc1)c1ccccc1 (stereo not given)", "Meas value": 98.3}
{"Compound": "Cc1cc(C(=O)Nc2ccc(SC#N)cc2)c(C)o1", "Meas value": 96.2}
{"Compound": "CCOc1c(C#N)c(Nc2ccc(S(N)(=O)=O)cc2)c(C#N)c2nnc(C)n12", "Meas value": 100}
{"Compound": "O=c1[nH]c2cc(Cl)ccc2n1C1CCN(c2ccc3nnc(Cl)n3n2)CC1", "Meas value": 87.7}
{"Compound": "Oc1ccc(-c2nnc(SCc3ccc(O)c4ncccc34)o2)cc1", "Meas value": 19.8}
{"Compound": "O=S(=O)(Nc1cc(Cl)cc(Cl)c1)c1ccc(-c2cnc(C3CC3)o2)cc1", "Meas value": 49.9}
{"Compound": "C=C(C)C(=O)O[C@H]1C[C@@]2(C)OC(=CC2=O)[C@H](C)[C@H](O)[C@H]2OC(=O)C(=C)[C@@H]21", "Meas value": 93.8}
{"Compound": "Cc1occc1-c1nc2s/c(=C\\c3cn(-c4ccccc4)nc3-c3ccccc3)c(=O)n2n1", "Meas value": 107}
{"Compound": "Cc1nn(-c2ccc(Br)cc2)c2nc(CCl)[nH]c(=O)c12", "Meas value": 104}
